Each item that follows carries a reported IC50.
Target: human CXCR3A (Homo sapiens (Human), UniProt P49682)
Sequence (P49682 whole entry): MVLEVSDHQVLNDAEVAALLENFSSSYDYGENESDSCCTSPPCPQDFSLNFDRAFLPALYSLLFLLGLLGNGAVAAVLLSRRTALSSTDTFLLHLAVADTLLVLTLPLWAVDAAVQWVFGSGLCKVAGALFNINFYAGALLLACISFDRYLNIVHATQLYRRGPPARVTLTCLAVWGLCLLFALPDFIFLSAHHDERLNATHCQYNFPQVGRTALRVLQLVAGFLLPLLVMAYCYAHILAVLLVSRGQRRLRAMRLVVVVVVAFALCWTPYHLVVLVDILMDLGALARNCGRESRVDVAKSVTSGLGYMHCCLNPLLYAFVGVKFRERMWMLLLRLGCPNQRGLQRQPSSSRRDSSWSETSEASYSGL
Assay: FLIPR assay (inhibition of CXCL10-induced calcium signal)
Details: engineered CHO-K1 cells expressing human CXCR3A coupled to Galpha(16); Fluo-4-AM; CXCL10 agonist 20 nM; mean values where determined several times
// return numeric value only (unit: nM, not printed)

Example compounds with recorded IC50:
substance_smiles=Cc1nc(C)n(CC(=O)N2CCN(c3cccc4c3CN(C(=O)OCc3ccccc3)CC4)C[C@H]2C)n1 outcome_measure=IC50 display_unit=nM endpoint_value=33.2
substance_smiles=CCCc1ncc(N2CCc3cccc(N4CCN(C(=O)Cn5cnc6cccnc65)[C@H](C)C4)c3C2)cn1 outcome_measure=IC50 display_unit=nM endpoint_value=0.85

I'd like to know its IC50. The compound in question is C[C@@H]1CN(c2cccc3c2CN(c2ccc(Cl)cc2)CC3)CCN1C(=O)Cn1cnc2cccnc21
7.55

I'd like to know its IC50. The compound in question is Cc1nc(C)n(CC(=O)N2CCN(c3ccc(F)c4c3CN(c3cnc(C(F)(F)F)nc3)CC4)C[C@H]2C)n1
58.9
